Sourced from the supplement of paper PMC6555819

# Tested on: PXR:RXRa (NR concentration 270 nM, RXRa partner concentration 90 nM)
# experimental-protocol: PBM binding z-score (relative to random genomic background probes); higher = stronger binding; sequences stand for … in GC…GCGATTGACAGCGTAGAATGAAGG
// values below are reported PBM binding z-score
The answer should be a number; do not append a unit.

Worked cases, PBM binding z-score given:
[
  {
    "polymer-sequence": "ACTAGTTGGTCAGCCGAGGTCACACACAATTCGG",
    "PBM binding z-score": 5.43
  },
  {
    "polymer-sequence": "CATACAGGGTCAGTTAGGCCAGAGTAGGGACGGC",
    "PBM binding z-score": 1.55
  },
  {
    "polymer-sequence": "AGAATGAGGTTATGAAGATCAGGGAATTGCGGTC",
    "PBM binding z-score": 1.18
  },
  {
    "polymer-sequence": "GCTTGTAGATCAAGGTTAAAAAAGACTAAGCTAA",
    "PBM binding z-score": 0.574
  },
  {
    "polymer-sequence": "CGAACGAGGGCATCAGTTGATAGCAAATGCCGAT",
    "PBM binding z-score": 0.166
  }
]

For the next question, use this sequence.
input: Endpoint output: PBM binding z-score of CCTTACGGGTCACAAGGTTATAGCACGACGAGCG . Value?
output: 3.87

###

# Test system: PPARg:RXRa 30nM:10nM, anti-RXR (NR concentration 30 nM, RXRa partner concentration 10 nM)
# experimental-protocol: PBM binding z-score (relative to random genomic background probes); higher = stronger binding; sequences stand for … in GC…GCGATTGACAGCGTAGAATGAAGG
We'd kindly ask you to apply these PBM binding z-score classes: range A: < 0.2; range B: ≥ 0.2 and < 2; range C: ≥ 2

input: Classify this sequence: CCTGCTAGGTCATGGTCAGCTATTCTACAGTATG
output: range B

input: Lab note: which band did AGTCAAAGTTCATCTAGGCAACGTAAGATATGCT land in?
output: range C

input: Lab note: sort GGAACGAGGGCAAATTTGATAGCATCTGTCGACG into the matching PBM binding z-score band.
output: range A

input: Please classify: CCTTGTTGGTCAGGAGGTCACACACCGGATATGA
output: range B

input: Please indicate the class for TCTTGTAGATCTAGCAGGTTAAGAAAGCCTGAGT based on its PBM binding z-score.
output: range C

input: Which band does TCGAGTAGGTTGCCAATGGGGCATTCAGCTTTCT fall in?
output: range B

input: Note: place this sequence into its band. Item: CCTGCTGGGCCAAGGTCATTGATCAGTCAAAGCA
output: range A

input: Which PBM binding z-score category applies to CCGACTGGGGCATAAGGCTACCATAAGCCAGCCC here?
output: range B

input: Pick a category. Item: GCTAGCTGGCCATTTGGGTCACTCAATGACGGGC
output: range A

input: Could you place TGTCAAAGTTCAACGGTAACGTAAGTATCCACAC in its proper category? Many thanks.
output: range C

input: For this sequence, which bin applies? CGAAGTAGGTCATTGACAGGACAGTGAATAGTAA
output: range C

input: Form: Item = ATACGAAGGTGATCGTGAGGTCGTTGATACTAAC ; Class = ?
output: range B

input: Determine which band this sequence sits in: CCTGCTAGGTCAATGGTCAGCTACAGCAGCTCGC
output: range C

input: # bin lookup: classify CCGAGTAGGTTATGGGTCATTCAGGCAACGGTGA by its PBM binding z-score
output: range C
